- ASSAY_SYSTEM: Pyruvate kinase PKLR (Rattus norvegicus) (UniProt P12928)
- Sequence (P12928 whole entry): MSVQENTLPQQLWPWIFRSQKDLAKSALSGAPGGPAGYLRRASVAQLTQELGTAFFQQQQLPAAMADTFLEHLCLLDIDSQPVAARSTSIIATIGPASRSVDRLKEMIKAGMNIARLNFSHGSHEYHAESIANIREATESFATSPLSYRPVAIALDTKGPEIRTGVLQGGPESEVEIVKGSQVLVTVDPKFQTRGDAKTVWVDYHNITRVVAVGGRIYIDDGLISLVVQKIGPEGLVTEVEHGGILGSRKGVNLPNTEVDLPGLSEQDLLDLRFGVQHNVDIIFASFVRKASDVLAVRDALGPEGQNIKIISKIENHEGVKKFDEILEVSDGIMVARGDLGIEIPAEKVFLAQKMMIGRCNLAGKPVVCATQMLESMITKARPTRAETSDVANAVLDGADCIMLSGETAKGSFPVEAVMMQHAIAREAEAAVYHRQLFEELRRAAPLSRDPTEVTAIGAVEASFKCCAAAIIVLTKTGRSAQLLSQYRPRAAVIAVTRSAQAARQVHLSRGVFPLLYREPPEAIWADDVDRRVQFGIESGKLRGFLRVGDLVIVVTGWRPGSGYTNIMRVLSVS
- MEASUREMENT_PROTOCOL: Ratio of Km(ADP)/Ki or Km for rat liver pyruvate kinase
Quick rule: Inhibitory potency of at least 0.1 means yes, below that means no.

Example results:
CO[C@H]1[C@@H](O)[C@H](n2cnc3c(N)ncnc32)O[C@@H]1COP(=O)(O)OP(=O)(O)O | no
CCSc1nc2c(N)ncnc2n1C1O[C@H](COP(=O)(O)OP(=O)(O)O)[C@@H](O)[C@H]1O (some centres not stated) | no
CC(=O)N(C)CCCCN(C)c1ncnc2c1ncn2[C@@H]1O[C@H](COP(=O)(O)OP(=O)(O)O)[C@@H](O)[C@H]1O | yes
CCNc1nc2c(N)ncnc2n1C1O[C@H](COP(=O)(O)OP(=O)(O)O)[C@@H](O)[C@H]1O (some centres not stated) | yes
C[C@H](OP(=O)(O)OP(=O)(O)O)[C@H]1OC(n2cnc3c(N)ncnc32)[C@H](O)[C@@H]1O (some centres not stated) | yes

[in] Entry CO[C@@H]1[C@H](O)[C@@H](COP(=O)(O)OP(=O)(O)O)O[C@H]1n1cnc2c(N)ncnc21 : is its Inhibitory potency no less than 0.1?
[out] yes

[in] Inhibitory potency >= 0.1 for CC1O[C@@H]2[C@H](O1)[C@@H](COP(=O)(O)OP(=O)(O)O)O[C@H]2n1cnc2c(N)ncnc21 (some centres not stated) ?
[out] yes
